Molecular target: human c-mpl-Ba/F3 cells (Homo sapiens, UniProt P40238)
Construct: expressed in transfected cells; host or cells: Ba/F3 (murine pro-B cells) expressing human c-mpl
Sequence (P40238 26-635): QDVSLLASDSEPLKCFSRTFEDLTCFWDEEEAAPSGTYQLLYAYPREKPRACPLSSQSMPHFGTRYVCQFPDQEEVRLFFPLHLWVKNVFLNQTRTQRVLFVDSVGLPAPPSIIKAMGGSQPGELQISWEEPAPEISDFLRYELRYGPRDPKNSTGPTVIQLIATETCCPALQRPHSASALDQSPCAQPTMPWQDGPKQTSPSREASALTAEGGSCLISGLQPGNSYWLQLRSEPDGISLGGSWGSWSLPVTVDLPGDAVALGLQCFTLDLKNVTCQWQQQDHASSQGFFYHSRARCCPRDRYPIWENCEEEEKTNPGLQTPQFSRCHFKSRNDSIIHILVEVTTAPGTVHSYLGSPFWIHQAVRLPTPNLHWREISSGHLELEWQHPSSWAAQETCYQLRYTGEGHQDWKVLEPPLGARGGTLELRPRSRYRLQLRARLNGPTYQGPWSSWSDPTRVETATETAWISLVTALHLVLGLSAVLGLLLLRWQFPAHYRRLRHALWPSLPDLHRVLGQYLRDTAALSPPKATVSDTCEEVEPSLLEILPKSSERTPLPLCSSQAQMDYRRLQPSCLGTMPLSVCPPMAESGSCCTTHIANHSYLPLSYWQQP
Experiment: Human c-mpl-Ba/F3 cell growth test
Format: cell-based
Settings: concentration at which cell growth is accelerated by 30% of the maximum cell growth activity of compound A; 24 h culture
Label scheme for Pot: low (below 3 nM), mid (3 nM to below 5 nM), high (5 nM or more)

Study these solved cases before continuing.
COc1cc(C(=O)Nc2nc(-c3ccc(F)cc3)c(N3CCN(C4CCCCC4)CC3)s2)ccn1 [Comparative Compound 4, reference compound]; high
O=C1NC(=S)S/C1=C\c1ccc(C(=O)Nc2nc(-c3ccc(Cl)c(Cl)c3)cs2)cc1 [Comparative Compound 1, reference compound]; mid
O=C(Nc1nc(-c2cc(Cl)cs2)c(CN2CCCCCC2)s1)c1cnc(N2CCC(C(=O)O)CC2)c(Cl)c1 [Example 84]; mid
C[C@H]1CCN(Cc2sc(NC(=O)c3cnc(N4CCC(C(=O)O)CC4)c(Cl)c3)nc2-c2cc(Cl)cs2)C1 [Example 109]; mid
C[C@@H]1CCCN1Cc1sc(NC(=O)c2cnc(N(C)CCCC(=O)O)c(Cl)c2)nc1-c1cc(Cl)cs1 [Example 226]; mid

Switching to the query record.
Using the reported Pot, which band applies to O=C(O)/C(Cl)=C/c1ccc(C(=O)Nc2nc(-c3ccc(Cl)c(Cl)c3)cs2)cc1 [Comparative Compound 2, reference compound] ?
low

* * *

target: human c-mpl-Ba/F3 cells (Homo sapiens); construct: expressed in transfected cells; host or cells: Ba/F3 (murine pro-B cells) expressing human c-mpl; test: Human c-mpl-Ba/F3 cell growth test; type: cell-based; conditions: maximum cell growth activity; maximum of compound A defined as 100%; read-out: Efficacy
parameter-measured: Emax (%)
Give a bare numeral; the unit % is implied.

CN(C)Cc1sc(NC(=O)c2cnc(N3CCC(C(=O)O)CC3)c(Cl)c2)nc1-c1cc(Cl)cs1; 114
O=C(Nc1nc(-c2cc(Cl)cs2)c(CN2CCCCCC2)s1)c1cnc(N2CCC(C(=O)O)CC2)c(Cl)c1; 103
O=C1NC(=S)S/C1=C\c1ccc(C(=O)Nc2nc(-c3ccc(Cl)c(Cl)c3)cs2)cc1 [Comparative Compound 1, reference compound]; 101

Let us move to another entry and its Emax.
For COc1cc(C(=O)Nc2nc(-c3ccc(F)cc3)c(N3CCN(C4CCCCC4)CC3)s2)ccn1 [Comparative Compound 4, reference compound] , what is its reported Emax?
95

* * *

Let's look at some compounds and their measured Pot.
Target: human c-mpl-Ba/F3 cells (Homo sapiens)
Construct: expressed in transfected cells; host or cells: Ba/F3 (murine pro-B cells) expressing human c-mpl
Sequence (P40238 26-635): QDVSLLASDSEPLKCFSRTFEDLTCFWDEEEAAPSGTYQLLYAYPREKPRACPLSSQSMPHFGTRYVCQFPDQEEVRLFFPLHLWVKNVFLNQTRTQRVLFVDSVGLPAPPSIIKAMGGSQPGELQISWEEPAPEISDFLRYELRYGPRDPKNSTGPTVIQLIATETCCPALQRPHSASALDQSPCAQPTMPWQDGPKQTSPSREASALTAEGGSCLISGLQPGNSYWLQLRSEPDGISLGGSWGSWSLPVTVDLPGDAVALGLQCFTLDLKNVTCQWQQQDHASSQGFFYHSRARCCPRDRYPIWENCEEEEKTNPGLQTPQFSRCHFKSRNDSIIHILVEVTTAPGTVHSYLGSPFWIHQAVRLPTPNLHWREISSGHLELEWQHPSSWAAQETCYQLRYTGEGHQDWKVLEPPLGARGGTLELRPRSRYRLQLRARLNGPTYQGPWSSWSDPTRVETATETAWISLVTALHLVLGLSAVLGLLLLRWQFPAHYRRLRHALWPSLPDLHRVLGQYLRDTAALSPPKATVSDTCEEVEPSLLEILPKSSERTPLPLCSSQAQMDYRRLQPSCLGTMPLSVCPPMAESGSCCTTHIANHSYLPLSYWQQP
Experiment: Human c-mpl-Ba/F3 cell growth test
Format: cell-based
Details: concentration at which cell growth is accelerated by 30% of the maximum cell growth activity of compound A; 24 h culture

Guide cases for Pot, answers given:
O=C(Nc1nc(-c2cc(Cl)cs2)c(CN2CCCCCCC2)s1)c1cnc(N2CCC(C(=O)O)CC2)c(Cl)c1; 3.3 nM
CCCCN(C)Cc1sc(NC(=O)c2cnc(N3CCNC(=O)C3)c(Cl)c2)nc1-c1cc(Cl)cs1; 6.1 nM

Now look at this one.
Return reported Pot; argument: "CCCCN(C)Cc1sc(NC(=O)c2cnc(N3CCC(C(=O)O)CC3)c(Cl)c2)nc1-c1cc(Cl)cs1"
2.0 nM

* * *

molecular target: human c-mpl-Ba/F3 cells (Homo sapiens); construct: expressed in transfected cells; host or cells: Ba/F3 (murine pro-B cells) expressing human c-mpl; assay: Human c-mpl-Ba/F3 cell growth test; type: cell-based; conditions: maximum cell growth activity; maximum of compound A defined as 100%; read-out: Efficacy
parameter-measured: Emax (%)
Write down the numeric answer in % and omit the unit.

Before answering, review these 5 worked examples.
Cc1sc(NC(=O)c2ccc(/C=C(\Cl)C(=O)O)cc2)nc1-c1cccc(C(F)(F)F)c1 [Comparative Compound 3, reference compound]; 96
CCCCN(C)Cc1sc(NC(=O)c2cnc(NCCCO)c(Cl)c2)nc1-c1cc(Cl)cs1; 99
O=C(O)/C(Cl)=C/c1ccc(C(=O)Nc2nc(-c3ccc(Cl)c(Cl)c3)cs2)cc1 [Comparative Compound 2, reference compound]; 96
C[C@@H]1CCCN1Cc1sc(NC(=O)c2cnc(N3CC(CC(=O)O)C3)c(Cl)c2)nc1-c1cc(Cl)cs1; 102
CCCCN(C)Cc1sc(NC(=O)c2cnc(N3CCNC(=O)C3)c(Cl)c2)nc1-c1cc(Cl)cs1; 99

Given "C[C@@H]1CCCN1Cc1sc(NC(=O)c2cnc(N3CCC(C(=O)O)CC3)c(F)c2)nc1-c1cc(Cl)cs1" , state its recorded Emax.
98
